# Test Target: Baculoviral IAP repeat-containing protein 2 (Homo sapiens)
# Measurement Notes: Induction of cIAP1 degradation in human MCF7 cells at 0.1 uM measured after 18 hrs by western blot analysis
# Type: cell-based
Property Name: Activity
Answer shape: numeric part, then the unit.

Recorded Activity, per entry:
Compound	Test Target	Measurement
CN[C@@H](C)C(=O)N[C@H](C(=O)N1Cc2cc(OCCCNC(=O)C3CCN(c4ccc5c(c4)C(=O)N(C4CCC(=O)NC4=O)C5=O)CC3)ccc2C[C@H]1C(=O)N[C@@H]1CCCc2ccccc21)C(C)(C)C (stereo not given in full)	Baculoviral IAP repeat-containing protein 2 (Homo sapiens)	92%
CN[C@@H](C)C(=O)N[C@H](C(=O)N1Cc2cc(OCCCCCNC(=O)COc3ccc4c(c3)C(=O)N(C3CCC(=O)NC3=O)C4=O)ccc2C[C@H]1C(=O)N[C@@H]1CCCc2ccccc21)C(C)(C)C (stereo not given in full)	Baculoviral IAP repeat-containing protein 2 (Homo sapiens)	89%
CN[C@@H](C)C(=O)N[C@H](C(=O)N1Cc2cc(OCCCCCNC(=O)C3CN(c4ccc5c(c4)C(=O)N(C4CCC(=O)NC4=O)C5=O)C3)ccc2C[C@H]1C(=O)N[C@@H]1CCCc2ccccc21)C(C)(C)C (stereo not given in full)	Baculoviral IAP repeat-containing protein 2 (Homo sapiens)	92%

*Q* Need Activity, item CNC(C)C(=O)NC(C(=O)N1Cc2cc(OCCCCCNc3ccc4c(c3)C(=O)N(C3CCC(=O)NC3=O)C4=O)ccc2C[C@H]1C(=O)NC1CCCc2ccccc21)C(C)(C)C (single isomer, unassigned)
*A* 97%

*Q* Need Activity, item CN[C@@H](C)C(=O)N[C@H](C(=O)N1Cc2cc(OCCCCCNC(=O)C3CCN(c4cccc5c4C(=O)N(C4CCC(=O)NC4=O)C5=O)CC3)ccc2C[C@H]1C(=O)N[C@@H]1CCCc2ccccc21)C(C)(C)C (stereo not given in full)
*A* 93%
